- studySystem: T1, human IL-2Rβ (human, UniProt P14784 27-240, limits assumed)
- T1 construct: recombinant protein, coated or immobilised; also called hu IL-2R; IL-2R beta
- T1 sequence: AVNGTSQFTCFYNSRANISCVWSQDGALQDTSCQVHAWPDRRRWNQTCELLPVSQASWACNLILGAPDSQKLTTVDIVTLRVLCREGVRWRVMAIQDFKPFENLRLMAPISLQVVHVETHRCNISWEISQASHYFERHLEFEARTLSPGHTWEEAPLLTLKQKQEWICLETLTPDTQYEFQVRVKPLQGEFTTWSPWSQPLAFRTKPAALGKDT
- experimentSummary: P.E. ELISA, coated protein
observedProperty: P.E. binding ELISA OD (OD450 nm)
Use OD450 nm as the unit, but write only the number.

Worked set:
| binder | unitTag | P.E. binding ELISA OD |
| --- | --- | --- |
| FJ1427_P035MP02F05 (VHH, soluble VHH in periplasmic extract; also called clone nr) VHH: EVQLVESGGGLVQTGGSLRLSCAVSGSRFISDVMGWYRQVPGKQRELVADMADGGSAKYADSVKGRFSILRDSVKNTVYLQMSSLKPEDTGIYYCKAGLWIAGRHSDYWGQGTQVTVSS | OD450 nm | 0.206 |
| FJ1427 P035MP02C06 (VHH, soluble VHH in periplasmic extract; also called clone nr) VHH: QLQLVESGGGLVQPGGSLELSCAASGFTFSNYAMSWVRQAPGKGLEWVSSITGFGRGTDYADSVKGRFTISRDNAKNTLYLQMNSLKPEDTAVYYCARYSSSTYYPPTPARGRDYRGQGTQVTVSS | OD450 nm | 0.351 |
| FJ1427_P035MP02C10 (VHH, soluble VHH in periplasmic extract; also called clone nr) VHH: QVQLVESGGGLVQAGGSLRLACALSGDVFVRYTMAWFRQAPGKEREFVASVTDSGRTTDYVASVQGRFTVSRDNNKNTVYLQMNSLKPEDTAVYYCAANTDYFQIRSLDRNTWGQGTQVTVSS | OD450 nm | 1.29 |

In: Bench note: what P.E. binding ELISA OD did FJ1427_P035MP02B04 (VHH, soluble VHH in periplasmic extract; also called clone nr) VHH: EVQLVESGGGLVQAGGSLGLSCAASGGTFSSYAMGWFRQAPGKEREFVAATTRGGGRTMYAVSTEGRFTCSRDNAKNTVYLQMNSLKPKDTAIYYCAAMTSYYSGTYYPDSSDFDIWGQGTQVTVSS show?
Out: 0.375

In: Bench note: what P.E. binding ELISA OD did FJ1427_P035MP02G09 (VHH, soluble VHH in periplasmic extract; also called clone nr) VHH: QVQLVESGGGLVQAGGSLRLSCTVSGDVFVRYTMAWFRQAPGKEREFVALVTDSGRTTEYVDSVKGRFTVSRDNAKNTVYLQMNNLKPEDTAVYYCAANTDYFRIRSLDANTWGQGTQVTVSS show?
Out: 0.527

In: Bench note: what P.E. binding ELISA OD did FJ1427_P035MP02A05 (VHH, soluble VHH in periplasmic extract; also called clone nr) VHH: EVQLVESGGGLVQTGGSLRLSCAASGSQFINDVMGWYRQVPGKQRELVADMDDTGSTKYADSVKGRFTILRDSVKNTAYLQMSNLKPEDTGVYYCKAGLWIKGRHSDYWGQGTQVTVSS show?
Out: 0.263

In: Bench note: what P.E. binding ELISA OD did FJ1427 P035MP02C05 (VHH, soluble VHH in periplasmic extract; also called clone nr) VHH: QVQLVESGGGLVQTGGSLRLSCAVSGSRFISDVMGWYRQVPGKQRELVADMADGGSAKYADSVKGRFSILRDSVKNTVYLQMSSLKPEDTGIYYCKAGLWIAGRHSDYWGQGTQVTVSS show?
Out: 0.237

In: Bench note: what P.E. binding ELISA OD did FJ1427_P035MP02B08 (VHH, soluble VHH in periplasmic extract; also called 16-MP02B08; clone nr) VHH: EVQLVESGGGLVQAGGSLRLSCAASGRAIENYPVGWFRQAPGKEREFVAAITWISGSTLYADSVKGRFTISRDNAKNTVYLQMSSLKPEDTALYYCAAALKTITRGQNDYSYWGQGTQVTVSS show?
Out: 1.38
